// Activity lookup, one value per entry
- System: Rhizopus
- Run Description: Antimicrobial activity against Rhizopus sp. assessed as percent of susceptible isolates after 24 hrs
- Type: functional
Entry rule: numbers only, all in %.

Completed entries (count: 3):
Compound: C[C@@H](c1ncncc1F)[C@](O)(Cn1cncn1)c1ccc(F)cc1F
Measured Target: Rhizopus
Activity [%]: 5

Compound: CCC(C)n1ncn(-c2ccc(N3CCN(c4ccc(OC[C@H]5CO[C@](Cn6cncn6)(c6ccc(Cl)cc6Cl)O5)cc4)CC3)cc2)c1=O (some centres undefined)
Measured Target: Rhizopus
Activity [%]: 62

Compound: Nc1nc(=O)[nH]cc1F
Measured Target: Rhizopus
Activity [%]: 0

Switching to the query record.
Challenge: Given the compound CC(=O)N1CCN(c2ccc(OCC3COC(Cn4ccnc4)(c4ccc(Cl)cc4Cl)O3)cc2)CC1 (centres undefined) , what is its reported Activity?
Response given: 83

###

- Tested on: Rhizomucor
- Run Description: Antimicrobial activity against Rhizomucor sp. assessed as percent of susceptible isolates after 24 hrs
- Type: functional
Endpoint: Activity (%)
Entry rule: numbers only, all in %.

Completed entries (count: 5):
Compound: CC[C@@H]([C@H](C)O)n1ncn(-c2ccc(N3CCN(c4ccc(OC[C@@H]5CO[C@@](Cn6cncn6)(c6ccc(F)cc6F)C5)cc4)CC3)cc2)c1=O
Scale Unit: %
Activity: 67

Compound: C[C@@H]1[C@H](O)[C@@H](C)/C=C/C=C/C=C/C=C/C=C/C=C/C=C/[C@H](O[C@@H]2O[C@H](C)[C@@H](O)[C@H](N)[C@@H]2O)C[C@@H]2O[C@](O)(C[C@@H](O)C[C@@H](O)[C@H](O)CC[C@@H](O)C[C@@H](O)CC(=O)O[C@H]1C)C[C@H](O)[C@H]2C(=O)O
Scale Unit: %
Activity: 100

Compound: CC[C@H](C)C[C@H](C)CCCCCCCCC(=O)N[C@H]1C[C@@H](O)[C@@H](NCCN)NC(=O)[C@@H]2[C@@H](O)CCN2C(=O)[C@H]([C@H](O)CCN)NC(=O)[C@H]([C@H](O)[C@@H](O)c2ccc(O)cc2)NC(=O)[C@@H]2C[C@@H](O)CN2C(=O)[C@H]([C@@H](C)O)NC1=O
Scale Unit: %
Activity: 0

Compound: C[C@@H](c1ncncc1F)[C@](O)(Cn1cncn1)c1ccc(F)cc1F
Scale Unit: %
Activity: 0

Compound: CCC(C)n1ncn(-c2ccc(N3CCN(c4ccc(OC[C@H]5CO[C@](Cn6cncn6)(c6ccc(Cl)cc6Cl)O5)cc4)CC3)cc2)c1=O (stereo partly specified)
Scale Unit: %
Activity: 67

Switching to the query record.
Challenge: Given the compound OC(Cn1cncn1)(Cn1cncn1)c1ccc(F)cc1F , what is its reported Activity?
Response given: 0

###

- System: Apophysomyces elegans
- Run Description: Antimicrobial activity against Apophysomyces elegans assessed as percent of susceptible isolates after 24 hrs
- Assay type: functional
// Activity lookup, one value per entry
Entry rule: numbers only, all in %.

Completed entries (count: 2):
Compound: CC[C@H](C)C[C@H](C)CCCCCCCCC(=O)N[C@H]1C[C@@H](O)[C@@H](NCCN)NC(=O)[C@@H]2[C@@H](O)CCN2C(=O)[C@H]([C@H](O)CCN)NC(=O)[C@H]([C@H](O)[C@@H](O)c2ccc(O)cc2)NC(=O)[C@@H]2C[C@@H](O)CN2C(=O)[C@H]([C@@H](C)O)NC1=O
Endpoint: Activity
Scale Unit: %
Readout Value: 0

Compound: OC(Cn1cncn1)(Cn1cncn1)c1ccc(F)cc1F
Endpoint: Activity
Scale Unit: %
Readout Value: 0

Challenge: Given the compound CCC(C)n1ncn(-c2ccc(N3CCN(c4ccc(OC[C@H]5CO[C@](Cn6cncn6)(c6ccc(Cl)cc6Cl)O5)cc4)CC3)cc2)c1=O (stereo partly specified) , what is its reported Activity?
Response given: 80

Challenge: And for C[C@@H]1[C@H](O)[C@@H](C)/C=C/C=C/C=C/C=C/C=C/C=C/C=C/[C@H](O[C@@H]2O[C@H](C)[C@@H](O)[C@H](N)[C@@H]2O)C[C@@H]2O[C@](O)(C[C@@H](O)C[C@@H](O)[C@H](O)CC[C@@H](O)C[C@@H](O)CC(=O)O[C@H]1C)C[C@H](O)[C@H]2C(=O)O ?
Response given: 100

Challenge: And for CC[C@@H]([C@H](C)O)n1ncn(-c2ccc(N3CCN(c4ccc(OC[C@@H]5CO[C@@](Cn6cncn6)(c6ccc(F)cc6F)C5)cc4)CC3)cc2)c1=O ?
Response given: 83

Challenge: And for C[C@@H](c1ncncc1F)[C@](O)(Cn1cncn1)c1ccc(F)cc1F ?
Response given: 100
